What growth inhibition was measured for each of the following?
- experiment summary: NCI Yeast Anticancer Drug Screen. Data for the rad50 strain (AID 155);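 note: 0% = growth of vehicle-only cultures of the same strain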
- conditions: S. cerevisiae rad50 strain growth inhibition; at 5.0 µM (retest, dose inferred, filed as 0.5); active compounds read high
About 79,000 compounds went through this panel and 15% of them were active in at least one assay; those are over-represented in the sample as a whole.
# number only, unit % dropped from output

Data request: Please indicate growth inhibition recorded for O=C(c1ccccc1)C1Cc2ccccc2C1=O (stereo unspecified)
Data returned: 2

Data request: Please indicate growth inhibition recorded for CCc1[nH]c2ccccc2c1C(c1c(CC)[nH]c2ccccc12)C1CCCCC1=O (stereo unspecified)
Data returned: 1

Data request: Please indicate growth inhibition recorded for Cc1cccc(N=Nc2ccc(O)cc2)c1
Data returned: -152

Data request: Please indicate growth inhibition recorded for O=C1C2C3C=CC(C3)C2C(=O)C2C3C=CC(C3)C12 (stereo unspecified)
Data returned: 70

Data request: Please indicate growth inhibition recorded for Cc1cc(Cc2cccc(Cl)c2)ccc1O
Data returned: -8

Data request: Please indicate growth inhibition recorded for O=C(O/N=C(/Cc1ccccc1)c1ccccc1)c1ccccc1
Data returned: -15

Data request: Please indicate growth inhibition recorded for CCCCCCCCCCCCCCCCN[Si](NCCCCCCCCCCCCCCCC)(NCCCCCCCCCCCCCCCC)NCCCCCCCCCCCCCCCC
Data returned: 97

Data request: Please indicate growth inhibition recorded for O=[N+]([O-])c1cccc(S(=O)(=O)Cl)c1
Data returned: -1

Data request: Please indicate growth inhibition recorded for CCCCN(CCC(=O)O)c1ccc(/C=C\c2ccnc3ccccc23)cc1
Data returned: 8

Data request: Please indicate growth inhibition recorded for COc1cc2c(cc1OC)NCC1COc3c(ccc(OC)c3OC)C1=N2 (stereo unspecified)
Data returned: 12

Data request: Please indicate growth inhibition recorded for CC1(C)OC2C(COC(c3ccccc3)(c3ccccc3)c3ccccc3)OC(n3ccc(=O)[nH]c3=O)C2O1 (stereo unspecified)
Data returned: 57

----------
- experiment summary: NCI Yeast Anticancer Drug Screen. Data for the bub3 strain (AID 167)
- conditions: S. cerevisiae bub3 mutant strain, at 50.0 µM, active compounds read high
Compounds without any hit were thinned out: in the full panel of roughly 79,000, 15% have a hit.
# if value of growth inhibition reaches 80%, tag yes; if it stays below, tag no

Data request: Could you tell me if the measured growth inhibition of CCOc1ccc2nc([NH-])sc2c1.CCOc1ccc2nc([NH-])sc2c1.CCOc1ccc2nc([NH-])sc2c1.CCOc1ccc2nc([NH-])sc2c1.[Cl][Rh][Cl] reaches 80% or more?
Data returned: no

Data request: Could you tell me if the measured growth inhibition of CC1(C)c2ccccc2Cc2cc3ccccc3nc21 reaches 80% or more?
Data returned: yes

Data request: Could you tell me if the measured growth inhibition of CN(C)CCCC(=O)OCC[N+](C)(C)C reaches 80% or more?
Data returned: no

Data request: Could you tell me if the measured growth inhibition of CC[N+](C)(CC)CCC[n+]1c(-c2ccccc2)c2cc(N)ccc2c2ccc(N)cc21 reaches 80% or more?
Data returned: no

Data request: Could you tell me if the measured growth inhibition of O=C(CC(c1ccccc1)c1ccccc1)NCCCCN1CCCCCCC1 reaches 80% or more?
Data returned: no

Data request: Could you tell me if the measured growth inhibition of CCOc1ccc(N=Nc2ccccc2)cc1 reaches 80% or more?
Data returned: no

Data request: Could you tell me if the measured growth inhibition of CCOC(=O)c1ccccc1NC(OCC)C(=O)c1ccccc1 (centres undefined) (tested in a mixture with another compound) reaches 80% or more?
Data returned: no

Data request: Could you tell me if the measured growth inhibition of Cc1ccc(/C=C2\CCCC(CN3CCCCC3)C2=O)cc1 (centres undefined) reaches 80% or more?
Data returned: yes

Data request: Could you tell me if the measured growth inhibition of CC[C@@]1(OP(=O)(O)O)C(=O)OCc2c1cc1n(c2=O)Cc2cc3ccccc3nc2-1 reaches 80% or more?
Data returned: no

Data request: Could you tell me if the measured growth inhibition of CC1(C)CC(O)C(O)C1 (centres undefined) reaches 80% or more?
Data returned: no

Data request: Could you tell me if the measured growth inhibition of C/C=C/C(=O)N1c2ccccc2CC1c1c(C)[nH]c2ccccc12 (centres undefined) reaches 80% or more?
Data returned: yes

Data request: Could you tell me if the measured growth inhibition of O=C1CNCCCN2CCN(CCCNCC(=O)Nc3ccc(cc3)S(=O)(=O)c3ccc(cc3)NC(=O)CNCCCN3CCN(CCCNCC(=O)Nc4ccc(cc4)S(=O)(=O)c4ccc(cc4)N1)CC3)CC2 reaches 80% or more?
Data returned: yes

Data request: Could you tell me if the measured growth inhibition of Clc1ccc(CSCCc2ccncc2)cc1Cl reaches 80% or more?
Data returned: yes

Data request: Could you tell me if the measured growth inhibition of N#Cc1ncc(Cl)cc1[N+](=O)[O-] reaches 80% or more?
Data returned: yes

Data request: Could you tell me if the measured growth inhibition of CC(=O)N=C1N(/C=C2\C(=O)Oc3ccccc3C2=O)C(=O)/C(=C/c2cccc(Cl)c2Cl)N1C reaches 80% or more?
Data returned: no

Data request: Could you tell me if the measured growth inhibition of CCCCCCCCCCCCCC(=O)NO reaches 80% or more?
Data returned: yes

Data request: Could you tell me if the measured growth inhibition of CN(C)CC/C(=N\Nc1ccc([N+](=O)[O-])cc1)c1ccccc1 reaches 80% or more?
Data returned: yes

Data request: Could you tell me if the measured growth inhibition of Clc1ccc(C2=C(c3ccccc3)C(c3ccc(Cl)cc3)N3C(=N[C@H]4CCCC[C@@H]43)N2)cc1 (some centres undefined) reaches 80% or more?
Data returned: yes

Data request: Could you tell me if the measured growth inhibition of C=CCNC(=S)N/N=C(/c1ccccn1)C(C)C reaches 80% or more?
Data returned: yes

Data request: Could you tell me if the measured growth inhibition of CCN(CC)CCOc1c(I)cc(I)cc1I reaches 80% or more?
Data returned: yes

Data request: Could you tell me if the measured growth inhibition of CC(=O)c1ccc2sc3ccccc3c2c1 reaches 80% or more?
Data returned: yes

Data request: Could you tell me if the measured growth inhibition of O=C(NCCCl)Nc1c2ccccc2nc2ccccc12 reaches 80% or more?
Data returned: no

Data request: Could you tell me if the measured growth inhibition of CCOP(=O)(OCC)/C(C#N)=C/c1coc2cc(C)cc(C)c2c1=O reaches 80% or more?
Data returned: yes

Data request: Could you tell me if the measured growth inhibition of CC/C(=N\O)c1ccc2cc(Br)c3ccccc3c2c1 reaches 80% or more?
Data returned: yes

Data request: Could you tell me if the measured growth inhibition of CN(C)CC(CN(C)C)C(=O)c1ccc(Oc2ccc(Cl)cc2)cc1 reaches 80% or more?
Data returned: no

Data request: Could you tell me if the measured growth inhibition of CC(C)NCCCNc1nc(NCCCNC(C)C)c2nc(-c3ccccc3)c(-c3ccccc3)nc2n1 reaches 80% or more?
Data returned: no

Data request: Could you tell me if the measured growth inhibition of O=c1[nH]cnc2nc(I)[nH]c12 reaches 80% or more?
Data returned: no

Data request: Could you tell me if the measured growth inhibition of NC1C(=O)C2CCCCC2C(=O)C1C(=O)c1ccccc1 (centres undefined) reaches 80% or more?
Data returned: no

Data request: Could you tell me if the measured growth inhibition of COc1ccccc1C1(c2ccccc2OC)OC(=O)c2ccccc21 reaches 80% or more?
Data returned: no

Data request: Could you tell me if the measured growth inhibition of O=C(CNS(=O)(=O)Cc1ccccc1)NCC(=O)NNc1ccccc1 reaches 80% or more?
Data returned: no

Data request: Could you tell me if the measured growth inhibition of OC(CN1CCCCC1)c1ccc2c(ccc3ccccc32)c1 (centres undefined) reaches 80% or more?
Data returned: yes

Data request: Could you tell me if the measured growth inhibition of C=C1C(=O)O[C@@H]2CC(CO)=C([C@@H](C)CCCO)[C@@H](OC(=O)/C(C)=C\C)[C@H]12 reaches 80% or more?
Data returned: yes

Data request: Could you tell me if the measured growth inhibition of Cc1c[n+](CC(=O)c2ccc(I)cc2)c(C)s1 reaches 80% or more?
Data returned: no

Data request: Could you tell me if the measured growth inhibition of COc1ccccc1NC(=O)C1=C(C)NC(C)=C(C(=O)Nc2ccccc2OC)C1c1ccccc1[N+](=O)[O-] reaches 80% or more?
Data returned: no

Data request: Could you tell me if the measured growth inhibition of Clc1ccc(C(c2ccc(Cl)cc2)c2cncnc2)cc1 reaches 80% or more?
Data returned: yes

Data request: Could you tell me if the measured growth inhibition of CCc1[nH]c2ccccc2c1N1C(=O)CC2(CCN(Cc3ccccc3)CC2)CC1=O reaches 80% or more?
Data returned: no

Data request: Could you tell me if the measured growth inhibition of CC(CN1CCCCCCC1)C(c1ccccc1)c1ccccc1 (centres undefined) reaches 80% or more?
Data returned: yes

Data request: Could you tell me if the measured growth inhibition of O=c1c2ccccc2sc2c1c(N(CCO)CCO)cc1ccccc12 reaches 80% or more?
Data returned: yes

Data request: Could you tell me if the measured growth inhibition of O=C1NC(=S)S/C1=C\c1cc(Cl)ccc1O reaches 80% or more?
Data returned: no

Data request: Could you tell me if the measured growth inhibition of Cc1cc2c(=O)[nH]c(N)nc2nc1C reaches 80% or more?
Data returned: no
